assaySystem: Hydrolase, alpha/beta hydrolase fold family (Mycobacterium tuberculosis) (UniProt O69638)
Sequence (O69638 as listed by the source): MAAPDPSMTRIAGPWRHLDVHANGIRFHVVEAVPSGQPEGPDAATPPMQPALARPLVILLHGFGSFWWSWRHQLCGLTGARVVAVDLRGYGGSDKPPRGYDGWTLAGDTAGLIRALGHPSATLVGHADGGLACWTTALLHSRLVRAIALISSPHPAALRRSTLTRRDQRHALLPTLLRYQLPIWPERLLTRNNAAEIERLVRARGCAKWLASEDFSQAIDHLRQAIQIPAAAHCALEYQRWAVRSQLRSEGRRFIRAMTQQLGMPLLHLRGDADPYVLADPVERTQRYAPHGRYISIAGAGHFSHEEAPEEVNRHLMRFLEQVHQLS
testSummary: Inhibition of Mycobacterium tuberculosis recombinant EphE expressed in Escherichia coli BL21 using CMNPC as substrate at 10 nM after 30 mins by fluorescent assay relative to control
Please enter satisfied where inhibition is greater than or equal to 40%, and not satisfied where it is lower.

IN: State whether the measured inhibition reaches 40%, counting equality as reaching it, for `CCCCCCCNC(=O)Nc1ccc(F)c(F)c1F`
OUT: satisfied

IN: State whether the measured inhibition reaches 40%, counting equality as reaching it, for CN(C(=O)N(C)C1C2CC3CC(C2)CC1C3)c1ccc(F)c(F)c1F (configuration not stated)
OUT: not satisfied

IN: State whether the measured inhibition reaches 40%, counting equality as reaching it, for O=C(NCCc1ccccc1)NC1C2CC3CC(C2)CC1C3 (configuration not stated)
OUT: satisfied

IN: State whether the measured inhibition reaches 40%, counting equality as reaching it, for `CCCCCCCNC(=O)Nc1cccc(C(F)(F)F)c1F`
OUT: satisfied

IN: State whether the measured inhibition reaches 40%, counting equality as reaching it, for `O=C(NCc1cccc(Cl)c1)Nc1cccc(C(F)(F)F)c1F`
OUT: not satisfied

IN: State whether the measured inhibition reaches 40%, counting equality as reaching it, for COc1ccc(NC(=O)NC2C3CC4CC(C3)CC2C4)cc1 (configuration not stated)
OUT: satisfied

IN: State whether the measured inhibition reaches 40%, counting equality as reaching it, for `Cc1ccc(NC(=O)NCC23CC4CC(CC(C4)C2)C3)cc1Cl`
OUT: satisfied

IN: State whether the measured inhibition reaches 40%, counting equality as reaching it, for CCCCCCCNC(=O)NC1C2CC3CC(C2)CC1C3 (configuration not stated)
OUT: satisfied

IN: State whether the measured inhibition reaches 40%, counting equality as reaching it, for CC1C(NC(=O)Nc2ccc(F)c(F)c2F)CC2CC1C2(C)C (configuration not stated)
OUT: satisfied

IN: State whether the measured inhibition reaches 40%, counting equality as reaching it, for Cc1c(Cl)cccc1NC(=O)NC1C2CC3CC(C2)CC1C3 (configuration not stated)
OUT: satisfied

IN: State whether the measured inhibition reaches 40%, counting equality as reaching it, for CC1(C)C2CCC(CNC(=O)Nc3ccc(F)c(F)c3F)C1C2 (configuration not stated)
OUT: satisfied

IN: State whether the measured inhibition reaches 40%, counting equality as reaching it, for `O=C(Nc1ccc(F)c(F)c1F)NC1CCCC1`
OUT: not satisfied

IN: State whether the measured inhibition reaches 40%, counting equality as reaching it, for O=C(Nc1ccc(F)c(F)c1F)OC1C2CC3CC(C2)CC1C3 (configuration not stated)
OUT: not satisfied

IN: State whether the measured inhibition reaches 40%, counting equality as reaching it, for `O=C(Nc1ccc(F)c(F)c1F)NC12CC3CC(CC(C3)C1)C2`
OUT: satisfied

IN: State whether the measured inhibition reaches 40%, counting equality as reaching it, for Cc1ccc(NC(=O)NC(C)CCc2ccccc2)cc1Cl (configuration not stated)
OUT: satisfied

IN: State whether the measured inhibition reaches 40%, counting equality as reaching it, for CC(=O)c1cccc(NC(=O)NC2C3CC4CC(C3)CC2C4)c1 (configuration not stated)
OUT: not satisfied

IN: State whether the measured inhibition reaches 40%, counting equality as reaching it, for O=C(NCc1ccccc1)NC1C2CC3CC(C2)CC1C3 (configuration not stated)
OUT: not satisfied
